# Test system: UACC-257 melanoma
# experiment: NCI-60 one-dose screen, 48 h
# test.parameters: 10 µM unless noted
Compounds without any hit were thinned out: in the full panel of roughly 83,000, 20% have a hit. Calls of active or inactive are those of the source. The calls were made as follows: active = growth percent below 10; inactive = the rest.
Response enum: active, inactive

Q. Please indicate how the test categorized O=C1C(N2CCOCC2)=C(I)C(=O)c2ncccc21 .
A. inactive

Q. Please indicate how the test categorized COc1ccc(/C=C(\C#N)c2cc3ccccc3[nH]2)cc1 .
A. inactive

Q. Please indicate how the test categorized COc1cc(/C=C2\CCC/C(=C\c3cc(CN4CCCC4)c(O)c(OC)c3)C2=O)cc(CN2CCCC2)c1O .
A. inactive

Q. Please indicate how the test categorized Cc1ccc(-c2nc3nc(-c4ccc(F)cc4)nc(N4CCCNCC4)c3o2)cc1 .
A. active

Q. Please indicate how the test categorized O=C1CCc2c(sc3[nH]c(=S)n(Cc4ccc(Cl)cc4)c(=O)c23)C1 .
A. active

###

# Tested on: 786-0 renal
# experiment: NCI-60 one-dose screen, 48 h
# test.parameters: 10 µM unless noted
# Description: Cells are grown in 96 well plates and exposed to the test compound for 48 hours. Compounds are tested at a single concentration, which is 10^-5 M for most compounds. The reported endpoint is percent growth (GI% or GIPRCNT), where numbers from 0 - 100% represent growth inhibition, and numbers from -100% - 0 represent cell death. For example, a value of 40 represents 60% growth inhibition. A value of 0 means no net growth occurred over the course of the experiment. […]
Compounds without any hit were thinned out: in the full panel of roughly 83,000, 20% have a hit. Activity calls are given as the source filed them. How the source made its calls: active means growth percent below 10; inactive means the rest.
Response enum: T = active, F = inactive

Q. Please indicate how the test categorized Nc1nc(N)c2c(n1)NC(c1cccc(Nc3ccnc4cc(C(F)(F)F)ccc34)c1)CC(c1ccc(F)cc1)=N2 (stereo not drawn) .
A. F

Q. Please indicate how the test categorized C=CCOc1ccc(/C=C2\SC(=S)N(CCc3ccc(O)cc3)C2=O)cc1 .
A. F

Q. Please indicate how the test categorized CCCCCCNC(=O)Oc1ccc(/C(=C(/CC)Cc2ccccc2)c2ccc(OCCCN(C)C)cc2)cc1 .
A. F

Q. Please indicate how the test categorized OCCN1CCN(CC/C=C2\c3ccccc3Sc3ccc(Cl)cc32)CC1 .
A. F

Q. Please indicate how the test categorized O=C(Nc1ncc(Cc2cccc(C(F)(F)F)c2)s1)c1ccc(-n2cnnn2)cc1 .
A. F

Q. Please indicate how the test categorized N=C(N)SCc1c2ccccc2c(CSC(=N)N)c2ccccc12 .
A. F

Q. Please indicate how the test categorized COC(=O)c1nc(-c2ccccc2)oc1S(=O)(=O)N(C)CCO .
A. F

Q. Please indicate how the test categorized CN1CCN(c2ccc(/C=C/C(=O)c3ccc(O)cc3)cc2)CC1 .
A. F

Q. Please indicate how the test categorized CCOc1nc(-c2ccccc2)cc2c(O)c(C(=O)N/N=C/c3ccc(N(C)C)cc3)[nH]c(=O)c12 .
A. F

Q. Please indicate how the test categorized C#CCn1cnc2cnc(Nc3cccc(NC(=O)CCl)c3)nc21 .
A. T

Q. Please indicate how the test categorized CCN1CCN(CC(=O)Nc2nc3ccc(NCc4ccc(C)cc4)cc3s2)CC1 .
A. F

Q. Please indicate how the test categorized COC1=CC(c2ccc[nH]2)=N/C1=C\c1[nH]c(C)c(C(=O)Oc2ccccc2)c1C .
A. T

Q. Please indicate how the test categorized Nc1nc(Nc2cccnc2)sc1C(=O)c1ccccc1F .
A. F

Q. Please indicate how the test categorized COc1c(O)c(O)cc2c3c(oc12)CC(c1ccc2c(c1)OCO2)CC3=O (stereo not drawn) .
A. F

Q. Please indicate how the test categorized C=C(CNCCc1ccc(O)cc1)[C@@H]1CC[C@]2(CO)CC[C@]3(C)[C@H](CC[C@@H]4[C@@]5(C)CCC(NCCc6ccc(O)cc6)C(C)(C)[C@@H]5CC[C@]43C)[C@@H]12 (stereo partly drawn) .
A. T

Q. Please indicate how the test categorized C=C1C(=O)O[C@H]2[C@H]1CC/C(COC(=O)NCc1ccc(Cn3c(=O)sn(CCCI)c3=O)cc1)=C\CC[C@@]1(C)O[C@@H]21 .
A. T

Q. Please indicate how the test categorized Cn1cc(C2=C(c3cccc4ccccc34)C(=O)NC2=O)c2cc(Br)ccc21 .
A. F

Q. Please indicate how the test categorized CCN(CC)CCOc1ccccc1C .
A. F

Q. Please indicate how the test categorized O=C1/C(=C/c2ccc(-c3ccccc3C(F)(F)F)o2)SC(=S)N1CCc1ccc(O)cc1 .
A. F

Q. Please indicate how the test categorized NS(=O)(=O)c1ccc(C(=O)N=Nc2c(O)[nH]c3c(F)cccc23)cc1 .
A. F

Q. Please indicate how the test categorized O=C(N=Nc1c(O)[nH]c2ccccc12)Nc1ccccc1Cl .
A. F

Q. Please indicate how the test categorized C=C(CN1CC=CCC1)[C@@H]1CC[C@]2(COC(C)=O)CC[C@]3(C)[C@H](CC[C@@H]4[C@@]5(C)CC[C@H](O)C(C)(C)[C@@H]5CC[C@]43C)[C@@H]12 .
A. F

Q. Please indicate how the test categorized COc1ccc(-c2cc3cnc4ccccc4c3oc2=O)cc1 .
A. F

Q. Please indicate how the test categorized C=C1C(=O)O[C@H]2[C@H]1CC/C(CNS(=O)(=O)c1ccc3ccccc3c1)=C\CC[C@@]1(C)O[C@@H]21 .
A. T

Q. Please indicate how the test categorized COc1ccc2c(c1)CC[C@@H]1[C@@H]2CC[C@]2(C)C3C(=CCC4C(=O)N(c5ccccc5)C(=O)C43)C[C@@H]12 (stereo partly drawn) .
A. F

Q. Please indicate how the test categorized CCN1C(=O)/C(=c2\sc3n(c2=O)C2C(NN=3)N(CC)C(=O)N2CC)c2ccccc21 (stereo not drawn) .
A. F

Q. Please indicate how the test categorized Cc1cnc(C(=O)NNc2nc3sc4c(c3c(=O)[nH]2)C(C)CCC4)cn1 (stereo not drawn) .
A. F

Q. Please indicate how the test categorized O=S(=O)(Nc1ccc(F)cc1)c1ccc(-c2cnc(C3CC3)o2)cc1 .
A. F

Q. Please indicate how the test categorized Fc1ccccc1-c1cnn2cc(-c3ccccc3)cnc12 .
A. F

Q. Please indicate how the test categorized Nc1ncc(-c2ccc3ncnc(N4CCc5ccc(Cl)cc54)c3c2)cc1C(F)(F)F .
A. T

Q. Please indicate how the test categorized Nc1ccc(-c2nc3ccc4[nH]ncc4c3c3c2CCCC3)cc1F .
A. F

Q. Please indicate how the test categorized CCNC(=O)Oc1ccc(/C(=C(/C)Cc2ccc(OC)cc2)c2ccc(OCCN(CC)CC)cc2)cc1 .
A. F

Q. Please indicate how the test categorized CCNC(=O)Nc1ncccc1OCc1ccc(F)cc1 .
A. F

Q. Please indicate how the test categorized N#Cc1ccccc1-c1ccc(Cn2c(-c3cscn3)nc3c(Cl)cccc32)cc1 .
A. F

Q. Please indicate how the test categorized COc1ccc(C/C(C)=C(/c2ccc(OCCN3CCCCCC3)cc2)c2ccc(OC(=O)c3ccccc3)cc2)cc1 .
A. F

Q. Please indicate how the test categorized C=CCNC(=O)Cc1c(-c2ccc(OC)cc2)oc2c(OC)c3c(c(OC)c12)OCO3 .
A. F

Q. Please indicate how the test categorized COc1cc(/C=N/NC(=O)CCN2c3ccccc3Sc3ccccc32)cc(OC)c1OC .
A. F

Q. Please indicate how the test categorized O=c1c(/C=C/c2ccco2)nnc2sc(Nc3ccc(Cl)cc3)nn12 .
A. F
